Source: the RNAGym collection of RNA variant scans (doi:10.1093/nar/gkz1192)

B1: CPEB3 Ribozyme (parent)
chain: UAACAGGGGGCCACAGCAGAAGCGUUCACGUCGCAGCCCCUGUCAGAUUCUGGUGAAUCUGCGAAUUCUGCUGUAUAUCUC

Variants of: B1
Assay: self-cleavage, relative activity (ratio to wild type); higher = more cleavage; in vitro, sequencing
Experimental Readout: self-cleavage

- Biosequence: "UAACAGGGGGCCACAGCUGGAGCGUUCACGUCGCAGCCCCUGUCAGAUUCUGGUGAAUCUGCGAAUUCUGCUGUAUAUCUC"
  Experimental Readout: "self-cleavage"
  Observed: 0.34
- Biosequence: "UAACAGGGGGCCACAGCAGAAGCGUUCACGUCGCAGCCCCUGUCAGAUUCUGGUGAAUCUACGAAUUCUGCUGUAUAUCGC"
  Experimental Readout: "self-cleavage"
  Observed: 1
- Biosequence: "UACCAGGGGGCCACAGCAGAAGCGAUCACGUCGCAGCCCCUGUCAGAUUCUGGUGAAUCUGCGAAUUCUGCUGUAUAUCUC"
  Experimental Readout: "self-cleavage"
  Observed: 0.4
- Biosequence: "UAACAGGGGGCCACAGCAGAAGCGUUCAAGUCGCAGCCCCUGUCAGAUUCUGGUGAAUCUGCGAAUUAUGCUGUAUAUCUC"
  Experimental Readout: "self-cleavage"
  Observed: 0.23
- Biosequence: "UAACAAGGGGCCACAGCAGAAGCGUUCACGUCGCAGCCCCUGUCAGAUUCUGGUGAAACUGCGAAUUCUGCUGUAUAUCUC"
  Experimental Readout: "self-cleavage"
  Observed: 0.27
- Biosequence: "UAACAGGGGGCCACAGCUGAAGCGUUCACGUCGCAGCCCCUGUCAGAUUCUGGUGGAUCUGCGAAUUCUGCUGUAUAUCUC"
  Experimental Readout: "self-cleavage"
  Observed: 0.3
- Biosequence: "UAACAGGGGGCCACACCAGAAGCGUUCACGUCGCAGCCCCUGCCAGAUUCUGGUGAAUCUGCGAAUUCUGCUGUAUAUCUC"
  Experimental Readout: "self-cleavage"
  Observed: 0.21
- Biosequence: "UAACAGGGGGCCACAGCAGAAGCGUUCGCGUCGCAGCCCCUGUCAGAUUCUGGUGAAUCUGCGAAUUCGGCUGUAUAUCUC"
  Experimental Readout: "self-cleavage"
  Observed: 0.48
- Biosequence: "UCACAGGGGGCCACAGCAGAAGCGUUCACGUCGCAGCCACUGUCAGAUUCUGGUGAAUCUGCGAAUUCUGCUGUAUAUCUC"
  Experimental Readout: "self-cleavage"
  Observed: 0.49
- Biosequence: "UAACAGGGAGCCACAGGAGAAGCGUUCACGUCGCAGCCCCUGUCAGAUUCUGGUGAAUCUGCGAAUUCUGCUGUAUAUCUC"
  Experimental Readout: "self-cleavage"
  Observed: 0.1
- Biosequence: "UAACAGGGGGCCACAGCAGAAGCGUUCACGUCGCAGCCCCUGUCAGAUUCUGGUGCAUCUGCGAACUCUGCUGUAUAUCUC"
  Experimental Readout: "self-cleavage"
  Observed: 0.32
- Biosequence: "UACCAGGGGGCCACAGCAGAAGCGUUCACGUCGCAGCCCCUGUGAGAUUCUGGUGAAUCUGCGAAUUCUGCUGUAUAUCUC"
  Experimental Readout: "self-cleavage"
  Observed: 0.84
- Biosequence: "UAACAGGGGGCCACAGCAGAAGCGUUCACGUCGCUGCCCCUGUCAGAUUCUGGUGAAUCUGAGAAUUCUGCUGUAUAUCUC"
  Experimental Readout: "self-cleavage"
  Observed: 0.13
- Biosequence: "UAACAGGGGGCCACAGCAAAAGCGUUCACGUCGCAGCCCCUGUCAGAUCCUGGUGAAUCUGCGAAUUCUGCUGUAUAUCUC"
  Experimental Readout: "self-cleavage"
  Observed: 0.1
- Biosequence: "UAACGGGGGGCCACAGCAGAAGCGUUCACGUCGCAGCCCCUGUCAGCUUCUGGUGAAUCUGCGAAUUCUGCUGUAUAUCUC"
  Experimental Readout: "self-cleavage"
  Observed: 0.59
- Biosequence: "UAACAGGGUGCCACAGCAGAAGCGUUCACGUCGCAGCCCCUGUCAGAUUCUGGUGAAUCAGCGAAUUCUGCUGUAUAUCUC"
  Experimental Readout: "self-cleavage"
  Observed: 0.15
- Biosequence: "UAACAGGGGGUCACAGCCGAAGCGUUCACGUCGCAGCCCCUGUCAGAUUCUGGUGAAUCUGCGAAUUCUGCUGUAUAUCUC"
  Experimental Readout: "self-cleavage"
  Observed: 0.39
- Biosequence: "UAACAGGGGGCCACAACAGAAGCGUUCACGUCGCAGCCCCUGUCAGAUUCUGGUGAAUCUGCGAAUUCUGCUGUAUAUAUC"
  Experimental Readout: "self-cleavage"
  Observed: 0.81
- Biosequence: "CAACAGGGGGCCACAGCAGAAGCGUUCACGUCGCAGCCCCUGUCAGAUUCUGGUGAGUCUGCGAAUUCUGCUGUAUAUCUC"
  Experimental Readout: "self-cleavage"
  Observed: 0.85
- Biosequence: "UAACAGGGGGCCACAGCAGAAGCGGUCACGUCGCAGCCCCUGUCAGAUUCUAGUGAAUCUGCGAAUUCUGCUGUAUAUCUC"
  Experimental Readout: "self-cleavage"
  Observed: 0.15
- Biosequence: "UAACAGGGGGCCACAGCAGAAGCGUUCACGUCGCAGCCCCUGUCAGAUUCUGGUGAAUAUGCGAAUUCUGCUGUAGAUCUC"
  Experimental Readout: "self-cleavage"
  Observed: 0.33
- Biosequence: "UAACAGGGGGCCACAGCAGAAGCGUUCACGUCGCAGCCCCUGUCAGAAUCUGGUAAAUCUGCGAAUUCUGCUGUAUAUCUC"
  Experimental Readout: "self-cleavage"
  Observed: 0.21
- Biosequence: "UAACAGGGUGCCACAGCAGAAGCGCUCACGUCGCAGCCCCUGUCAGAUUCUGGUGAAUCUGCGAAUUCUGCUGUAUAUCUC"
  Experimental Readout: "self-cleavage"
  Observed: 0.14
- Biosequence: "UAACAGGGGGCCACAGCAGAAGCGUUCACGUCGCAGCCCCUGUCAGAUUCUGGUGAAUCUGCGAAUUAUGCUGUAUAUCCC"
  Experimental Readout: "self-cleavage"
  Observed: 0.53
- Biosequence: "UAACAGGGGGCCACAGCAUAAGCGUUCACGUCGCAGCCCCUGUCAGAUUCUGGUGAAUCUGCGAAUUCUGCGGUAUAUCUC"
  Experimental Readout: "self-cleavage"
  Observed: 0.4
- Biosequence: "UAACAGGGGGCCACAGCAGAAGCGUUCACGUCGCAGCCCCUGUAAGACUCUGGUGAAUCUGCGAAUUCUGCUGUAUAUCUC"
  Experimental Readout: "self-cleavage"
  Observed: 0.32
- Biosequence: "UAACAGGGGGCCACAGCAGAAGCGUUAACGUCGCAGCCCCCGUCAGAUUCUGGUGAAUCUGCGAAUUCUGCUGUAUAUCUC"
  Experimental Readout: "self-cleavage"
  Observed: 0.24
- Biosequence: "UAACGGGGGGCCACAGCAGAAGCGUUCACGUCGCAGCCCCUGUCAGAUUCUGGUGAAUCUGCGAAUUCUGCUGUACAUCUC"
  Experimental Readout: "self-cleavage"
  Observed: 0.76
- Biosequence: "UCACAGGGGGCCACGGCAGAAGCGUUCACGUCGCAGCCCCUGUCAGAUUCUGGUGAAUCUGCGAAUUCUGCUGUAUAUCUC"
  Experimental Readout: "self-cleavage"
  Observed: 0.69
- Biosequence: "UAACAGGGGGCCACAGCAGAAGCGUUCACGUCGCAGCCCCUGUCAGAUUCUGGUUAAUCUGCGAAUCCUGCUGUAUAUCUC"
  Experimental Readout: "self-cleavage"
  Observed: 0.21
- Biosequence: "UAACAGGGGGCCACAGCAGAAGCGAUCGCGUCGCAGCCCCUGUCAGAUUCUGGUGAAUCUGCGAAUUCUGCUGUAUAUCUC"
  Experimental Readout: "self-cleavage"
  Observed: 0.28
- Biosequence: "UAACGGGGGGCCACAGCAGAAGCGUUCACGUCGCAGCCCCUGUCAGAUUCUGGUGAAUCUGCGGAUUCUGCUGUAUAUCUC"
  Experimental Readout: "self-cleavage"
  Observed: 0.58
- Biosequence: "UAACAGGGGGCCACAGCAGAAGCGUUCACGUCGCAGCCCCUUUCAGAUUCUGGUGAGUCUGCGAAUUCUGCUGUAUAUCUC"
  Experimental Readout: "self-cleavage"
  Observed: 0.19
- Biosequence: "UAACGGGGGGCCACAGCAGAAGCGUUCACGUCGCAGCCCCUGUCAGAUUCUGGUGAAUCUGCGAAUUCUGCUUUAUAUCUC"
  Experimental Readout: "self-cleavage"
  Observed: 1.17
- Biosequence: "UAACAGGGGGCCACAGCAGAAGCGUUCACGUCGCAACCCCUGUCAGAUUAUGGUGAAUCUGCGAAUUCUGCUGUAUAUCUC"
  Experimental Readout: "self-cleavage"
  Observed: 0.25
- Biosequence: "UAACAGGGGGGCACAGCAGAAGCGUUCACGUCGCAGCCCCUGUGAGAUUCUGGUGAAUCUGCGAAUUCUGCUGUAUAUCUC"
  Experimental Readout: "self-cleavage"
  Observed: 0.32
- Biosequence: "UAACAGGGGGCCACAGCAGAAGCGUUCACGUCGCAGCCACUGUCAGAUUCCGGUGAAUCUGCGAAUUCUGCUGUAUAUCUC"
  Experimental Readout: "self-cleavage"
  Observed: 0.34
- Biosequence: "UAACAGGGGGCCACAGCAGAAGCGUUCACGUCGCAGCCCCUGUCAGAUUCUGGUGAAUCGGCGAACUCUGCUGUAUAUCUC"
  Experimental Readout: "self-cleavage"
  Observed: 0.15
- Biosequence: "UAACAGGGGGCCACAGCAGCAGCGUUCACGUCGCAGCCCCUGUCAGAUUCUGGUGAAUCUGCGAAUUCUGCUGUAUAUCUC"
  Experimental Readout: "self-cleavage"
  Observed: 0.3
- Biosequence: "UAACAGGGGGCCACAGCAGAAGCGUUCACGUCGCAGCCCCUGUCAGAUUCUGGUGAAUCUGCGAAUACUGCUGUAUAUAUC"
  Experimental Readout: "self-cleavage"
  Observed: 0.82
- Biosequence: "UAACAGGGGGCCACAGCAGAAGCGUUCACGUCGCAGCCCUUGUCAGAUUCUGGUGAAUCUGCGAAUUCUGCUGUAUAUCAC"
  Experimental Readout: "self-cleavage"
  Observed: 0.67
- Biosequence: "UAACAGGGGGCCACAGCAAAAGCGUUCACGUCGCAGCCCCUGUCAGAUUCUGGUGGAUCUGCGAAUUCUGCUGUAUAUCUC"
  Experimental Readout: "self-cleavage"
  Observed: 0.2
- Biosequence: "UAACAGGGGGCCACAGCAGCAGCGUUCACGUCGCAGCCCCUGUCAGAUUCUGGUGAAUCUGCGAAUUCUGCUGUAUAUCAC"
  Experimental Readout: "self-cleavage"
  Observed: 0.51
- Biosequence: "UAACAGGGGGCAACAGCAGAAGCGUUCACGUCGCAGCCCCUGUCAGAUUCUGGUGAGUCUGCGAAUUCUGCUGUAUAUCUC"
  Experimental Readout: "self-cleavage"
  Observed: 1.06
- Biosequence: "UAACAGGGGGCCACAGCAGAAGCGUUCUCGUCGCAGCCCCUGUCAGAUUCUGGUGAAUCUGUGAAUUCUGCUGUAUAUCUC"
  Experimental Readout: "self-cleavage"
  Observed: 0.19
- Biosequence: "UAACUGGGGGCCACAGCAGAAGCGUUGACGUCGCAGCCCCUGUCAGAUUCUGGUGAAUCUGCGAAUUCUGCUGUAUAUCUC"
  Experimental Readout: "self-cleavage"
  Observed: 0.21
